# Applied Conditions: in cyclohexane, 318.15 K
Quantity Measured: solubility (mole fraction)
I'd appreciate a reply containing only the number, no unit.

Q: Form field: reported solubility (mole fraction) of CC(=O)Nc1ccc(CC(=O)O)cc1
Result: 1.21e-05

###

# Applied Conditions: in isopropanol, 308.15 K
Quantity Measured: solubility (mole fraction)
I'd appreciate a reply containing only the number, no unit.

Q: Form field: reported solubility (mole fraction) of CC(=O)Nc1ccc(CC(=O)O)cc1
Result: 0.0101

###

# Applied Conditions: in 2-butanone, 303.15 K
Quantity Measured: solubility (mole fraction)

Q: Form field: reported solubility (mole fraction) of CC(=O)Nc1ccc(CC(=O)O)cc1
Result: 0.0115

###

# Applied Conditions: in isopropanol, 288.15 K
Quantity Measured: solubility (mole fraction)
I'd appreciate a reply containing only the number, no unit.

Q: Form field: reported solubility (mole fraction) of CC(=O)Nc1ccc(CC(=O)O)cc1
Result: 0.00437

###

# Applied Conditions: in methanol, 288.15 K
Quantity Measured: solubility (mole fraction)
I'd appreciate a reply containing only the number, no unit.

Q: Form field: reported solubility (mole fraction) of CC(=O)Nc1ccc(CC(=O)O)cc1
Result: 0.0113

###

# Applied Conditions: in ethyl acetate, 313.15 K
Quantity Measured: solubility (mole fraction)
I'd appreciate a reply containing only the number, no unit.

Q: Form field: reported solubility (mole fraction) of CC(=O)Nc1ccc(CC(=O)O)cc1
Result: 0.00291

###

# Applied Conditions: in ethanol, 303.15 K
Quantity Measured: solubility (mole fraction)
I'd appreciate a reply containing only the number, no unit.

Q: Form field: reported solubility (mole fraction) of CC(=O)Nc1ccc(CC(=O)O)cc1
Result: 0.0143

###

# Applied Conditions: in methanol, 298.15 K
Quantity Measured: solubility (mole fraction)
I'd appreciate a reply containing only the number, no unit.

Q: Form field: reported solubility (mole fraction) of CC(=O)Nc1ccc(CC(=O)O)cc1
Result: 0.0169

###

# Applied Conditions: in methanol, 303.15 K
Quantity Measured: solubility (mole fraction)
I'd appreciate a reply containing only the number, no unit.

Q: Form field: reported solubility (mole fraction) of CC(=O)Nc1ccc(CC(=O)O)cc1
Result: 0.0207

###

# Applied Conditions: in water, 278.15 K
Quantity Measured: solubility (mole fraction)
I'd appreciate a reply containing only the number, no unit.

Q: Form field: reported solubility (mole fraction) of CC(=O)Nc1ccc(CC(=O)O)cc1
Result: 0.000163

###

# Applied Conditions: in ethyl acetate, 318.15 K
Quantity Measured: solubility (mole fraction)
I'd appreciate a reply containing only the number, no unit.

Q: Form field: reported solubility (mole fraction) of CC(=O)Nc1ccc(CC(=O)O)cc1
Result: 0.00357

###

# Applied Conditions: in methanol, 308.15 K
Quantity Measured: solubility (mole fraction)

Q: Form field: reported solubility (mole fraction) of CC(=O)Nc1ccc(CC(=O)O)cc1
Result: 0.0249

###

# Applied Conditions: in acetonitrile, 318.15 K
Quantity Measured: solubility (mole fraction)
I'd appreciate a reply containing only the number, no unit.

Q: Form field: reported solubility (mole fraction) of CC(=O)Nc1ccc(CC(=O)O)cc1
Result: 0.00455

###

# Applied Conditions: in methanol, 318.15 K
Quantity Measured: solubility (mole fraction)
I'd appreciate a reply containing only the number, no unit.

Q: Form field: reported solubility (mole fraction) of CC(=O)Nc1ccc(CC(=O)O)cc1
Result: 0.0369
